// data source = paper PMC6270839

experiment: Chemical stability of the prodrugs in PBS (HPLC); format: physicochemical; details: PBS pH 4.6, 37 °C, 1 h
readout-type: Remaining Prodrugs 1 h pH 4.6 (%)
Supply the numeric figure in %, leaving out any unit text.

input: What does the data say about its Remaining Prodrugs 1 h pH 4.6? Entry: CCc1c2c(nc3ccc(OC(=O)N[C@H](CC(=O)O)C(=O)O)cc13)-c1cc3c(c(=O)n1C2)COC(=O)[C@]3(O)CC
output: 100

input: Then CCc1c2c(nc3ccc(OC(=O)NC(C)C(=O)NC(CCC(=O)O)C(=O)O)cc13)-c1cc3c(c(=O)n1C2)COC(=O)[C@]3(O)CC (some centres unmarked) ?
output: 100

input: Subsequent entry: CCc1c2c(nc3ccc(OC(=O)NC(CCC(=O)O)C(=O)O)cc13)-c1cc3c(c(=O)n1C2)COC(=O)[C@]3(O)CC (some centres unmarked)
output: 98.1

input: Try this compound too: CCc1c2c(nc3ccc(OC(=O)NCC(=O)NC(CCC(=O)O)C(=O)O)cc13)-c1cc3c(c(=O)n1C2)COC(=O)[C@]3(O)CC (some centres unmarked)
output: 100

input: Repeat for the following compound: CCc1c2c(nc3ccc(OC(=O)NCC(=O)N[C@H](CC(=O)O)C(=O)O)cc13)-c1cc3c(c(=O)n1C2)COC(=O)[C@]3(O)CC
output: 100

---

target: AChE from electric eel (Electrophorus electricus, UniProt O42275); assay: AChE inhibition assay (modified Ellman method); format: biochemical; details: AChE IC50, electric eel AChE, phosphate buffer pH 7.3, 37 °C
Sequence (O42275 24-633): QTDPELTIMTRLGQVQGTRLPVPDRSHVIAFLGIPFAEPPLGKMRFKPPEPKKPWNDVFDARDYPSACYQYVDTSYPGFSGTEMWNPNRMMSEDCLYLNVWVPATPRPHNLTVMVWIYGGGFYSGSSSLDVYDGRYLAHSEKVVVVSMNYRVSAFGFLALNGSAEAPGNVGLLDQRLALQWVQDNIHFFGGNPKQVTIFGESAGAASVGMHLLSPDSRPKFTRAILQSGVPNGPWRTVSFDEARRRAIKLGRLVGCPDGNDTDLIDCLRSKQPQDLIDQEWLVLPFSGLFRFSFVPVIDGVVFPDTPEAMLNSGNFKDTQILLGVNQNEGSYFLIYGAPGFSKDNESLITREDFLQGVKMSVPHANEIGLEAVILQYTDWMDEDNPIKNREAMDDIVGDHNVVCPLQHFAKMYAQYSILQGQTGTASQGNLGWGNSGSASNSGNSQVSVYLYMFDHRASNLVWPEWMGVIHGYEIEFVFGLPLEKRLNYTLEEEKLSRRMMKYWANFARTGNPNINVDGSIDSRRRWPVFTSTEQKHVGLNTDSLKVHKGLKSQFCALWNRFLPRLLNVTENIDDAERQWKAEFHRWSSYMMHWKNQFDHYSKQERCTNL
// boundary case: IC50 equal to 4 µM maps to Not fulfilled; strictly smaller maps to Fulfilled

input: Given CCc1c2c(nc3ccc(OC(=O)NC(C(=O)O)C(C)CC)cc13)-c1cc3c(c(=O)n1C2)COC(=O)[C@]3(O)CC (some centres unmarked) [Compound 5f, 10-OCO-(Ile-OH)-SN-38] , is recorded IC50 strictly lower than 4 µM?
output: Fulfilled

input: What do you get for CCc1c2c(nc3ccc(OC(=O)NCC(=O)NC(CCC(=O)O)C(=O)O)cc13)-c1cc3c(c(=O)n1C2)COC(=O)[C@]3(O)CC (stereo partly drawn) [Compound 7c, 10-OCO-(Glu-Gly-OH)-SN-38] ?
output: Not fulfilled

input: Also need CCc1c2c(nc3ccc(OC(=O)NCC(=O)O)cc13)-c1cc3c(c(=O)n1C2)COC(=O)[C@]3(O)CC [Compound 5a, 10-OCO-(Gly-OH)-SN-38] , thanks.
output: Not fulfilled

input: Check CCc1c2c(nc3ccc(OC(=O)N[C@H](CC(=O)O)C(=O)O)cc13)-c1cc3c(c(=O)n1C2)COC(=O)[C@]3(O)CC [Compound 5g, 10-OCO-(L-Asp-OH)-SN-38] too.
output: Fulfilled

input: Now the compound CCc1c2c(nc3ccc(OC(=O)NC(C)C(=O)NC(CCC(=O)O)C(=O)O)cc13)-c1cc3c(c(=O)n1C2)COC(=O)[C@]3(O)CC (stereo partly drawn) [Compound 7f, 10-OCO-(Glu-Ala-OH)-SN-38]
output: Not fulfilled

input: Now consider CCc1c2c(nc3ccc(OC(=O)NCC(=O)N[C@H](CC(=O)O)C(=O)O)cc13)-c1cc3c(c(=O)n1C2)COC(=O)[C@]3(O)CC [Compound 7a, 10-OCO-(D-Asp-Gly-OH)-SN-38] .
output: Not fulfilled

input: Proceed to CCc1c2c(nc3ccc(OC(=O)N[C@@H](CC(=O)O)C(=O)O)cc13)-c1cc3c(c(=O)n1C2)COC(=O)[C@]3(O)CC [Compound 5h, 10-OCO-(D-Asp-OH)-SN-38]
output: Not fulfilled

input: Same question, CCc1c2c(nc3ccc(OC(=O)NC(C)C(=O)N[C@H](CC(=O)O)C(=O)O)cc13)-c1cc3c(c(=O)n1C2)COC(=O)[C@]3(O)CC (stereo partly drawn) [Compound 7d, 10-OCO-(D-Asp-Ala-OH)-SN-38] this time
output: Not fulfilled

---

test system: HeLa human cervical carcinoma cell line; assay: MTT in vitro antitumor (antiproliferative) assay, HeLa; assay type: cell-based; settings: 72 h, read-out: IC50 HeLa
Rule: IC50 below 9 nM gives Fulfilled, anything at or above gives Not fulfilled.

input: Lab note: confirm whether the reported IC50 for this compound is below 9 nM, equality not counting. compound: CCc1c2c(nc3ccc(OC(=O)NC(C(=O)O)C(C)CC)cc13)-c1cc3c(c(=O)n1C2)COC(=O)[C@]3(O)CC (stereo partly shown)
output: Fulfilled

input: Moving on to CCc1c2c(nc3ccc(OC(=O)NCC(=O)NC(CCC(=O)O)C(=O)O)cc13)-c1cc3c(c(=O)n1C2)COC(=O)[C@]3(O)CC (stereo partly shown)
output: Fulfilled

input: Now the same for CCc1c2c(nc3ccc(OC(=O)NCC(=O)O)cc13)-c1cc3c(c(=O)n1C2)COC(=O)[C@]3(O)CC
output: Not fulfilled

input: What about this compound? CCc1c2c(nc3ccc(OC(=O)NC(CC(C)C)C(=O)O)cc13)-c1cc3c(c(=O)n1C2)COC(=O)[C@]3(O)CC (stereo partly shown)
output: Fulfilled

input: Proceed to CCc1c2c(nc3ccc(OC(=O)NCC(=O)N[C@H](CC(=O)O)C(=O)O)cc13)-c1cc3c(c(=O)n1C2)COC(=O)[C@]3(O)CC
output: Fulfilled

input: For CCc1c2c(nc3ccc(OC(=O)NC(C(=O)O)C(C)C)cc13)-c1cc3c(c(=O)n1C2)COC(=O)[C@]3(O)CC (stereo partly shown) then?
output: Fulfilled

input: Another compound to look at: CCc1c2c(nc3ccc(OC(=O)NC(C)C(=O)N[C@H](CC(=O)O)C(=O)O)cc13)-c1cc3c(c(=O)n1C2)COC(=O)[C@]3(O)CC (stereo partly shown)
output: Fulfilled

input: Field entry: CCc1c2c(nc3ccc(OC(=O)NC(C)C(=O)NC(CCC(=O)O)C(=O)O)cc13)-c1cc3c(c(=O)n1C2)COC(=O)[C@]3(O)CC (stereo partly shown)
output: Fulfilled

input: Moving on to CCc1c2c(nc3ccc(OC(=O)NC(C)C(=O)O)cc13)-c1cc3c(c(=O)n1C2)COC(=O)[C@]3(O)CC (stereo partly shown)
output: Not fulfilled

input: Same for CCc1c2c(nc3ccc(OC(=O)NC(C)C(=O)N[C@@H](CC(=O)O)C(=O)O)cc13)-c1cc3c(c(=O)n1C2)COC(=O)[C@]3(O)CC (stereo partly shown)
output: Not fulfilled

input: Repeat with CCc1c2c(nc3ccc(OC(=O)N[C@@H](CC(=O)O)C(=O)O)cc13)-c1cc3c(c(=O)n1C2)COC(=O)[C@]3(O)CC
output: Fulfilled

input: Next up: CCc1c2c(nc3ccc(OC(=O)NCC(=O)N[C@@H](CC(=O)O)C(=O)O)cc13)-c1cc3c(c(=O)n1C2)COC(=O)[C@]3(O)CC
output: Not fulfilled

---

experiment: Chemical stability of the prodrugs in PBS (HPLC); assay type: physicochemical; settings: PBS pH 7.4, 37 °C, 12 h
So I've got a bunch of molecules here, and I need their Remaining Prodrugs 12 h pH 7.4 values.
Unit % implied. Number only.

input: // lookup Remaining Prodrugs 12 h pH 7.4 for CCc1c2c(nc3ccc(OC(=O)N[C@@H](CC(=O)O)C(=O)O)cc13)-c1cc3c(c(=O)n1C2)COC(=O)[C@]3(O)CC
output: 52.2

input: Same read-out for CCc1c2c(nc3ccc(OC(=O)NC(C)C(=O)N[C@H](CC(=O)O)C(=O)O)cc13)-c1cc3c(c(=O)n1C2)COC(=O)[C@]3(O)CC (stereo partly shown) ?
output: 0

input: What do we get for CCc1c2c(nc3ccc(OC(=O)NC(C)C(=O)N[C@@H](CC(=O)O)C(=O)O)cc13)-c1cc3c(c(=O)n1C2)COC(=O)[C@]3(O)CC (stereo partly shown) ?
output: 0

input: What do we get for CCc1c2c(nc3ccc(OC(=O)N[C@H](CC(=O)O)C(=O)O)cc13)-c1cc3c(c(=O)n1C2)COC(=O)[C@]3(O)CC ?
output: 34.1

input: Moving on to CCc1c2c(nc3ccc(OC(=O)NC(C)C(=O)NC(CCC(=O)O)C(=O)O)cc13)-c1cc3c(c(=O)n1C2)COC(=O)[C@]3(O)CC (stereo partly shown)
output: 0

input: How about CCc1c2c(nc3ccc(OC(=O)NC(CCC(=O)O)C(=O)O)cc13)-c1cc3c(c(=O)n1C2)COC(=O)[C@]3(O)CC (stereo partly shown) ?
output: 8.6

input: Then this molecule: CCc1c2c(nc3ccc(OC(=O)NCC(=O)N[C@@H](CC(=O)O)C(=O)O)cc13)-c1cc3c(c(=O)n1C2)COC(=O)[C@]3(O)CC
output: 0

input: Try the molecule CCc1c2c(nc3ccc(OC(=O)NCC(=O)NC(CCC(=O)O)C(=O)O)cc13)-c1cc3c(c(=O)n1C2)COC(=O)[C@]3(O)CC (stereo partly shown)
output: 0

input: What do we get for CCc1c2c(nc3ccc(OC(=O)NCC(=O)N[C@H](CC(=O)O)C(=O)O)cc13)-c1cc3c(c(=O)n1C2)COC(=O)[C@]3(O)CC ?
output: 0

input: # repeat for CCc1c2c(nc3ccc(OC(=O)NCC(=O)O)cc13)-c1cc3c(c(=O)n1C2)COC(=O)[C@]3(O)CC
output: 14.8
